Tested on: K-562 leukemia
Experiment: NCI tumour cell line growth inhibition, 48 h
A collection of compounds and their measured TGI

Please review the following examples before continuing.
- O=c1nc2c(c(-c3cccc(Cl)c3)[nH]1)COC/C2=C\c1cccc(Cl)c1: > 100 µM
- O=C(N/N=C/c1cccc(O)c1O)N/N=C/c1cccc(O)c1O: > 100 µM
- Cc1ccc(C2=Nc3c(c(C)nn3-c3ccccc3)N=C(C(=O)O)C2)cc1: > 10 µM
- CCOC(=O)C(=O)N1C(C)=C(C(=O)OCC)CC(C(=O)OCC)=C1C: > 100 µM

Now for another entry.
Requested read-out: TGI. Entry: Cc1nc2nnc(C)n2c2c1C(=O)Nc1ccccc1N2
> 100 µM
